Test: Oral bioavailability in beagle dog at 10 mg/kg
Format: ADME, organism-based, Canis lupus familiaris
Details: in vivo
MEASUREMENT KIND: bioavailability (%)
State just the number; it will be interpreted in %.

Using the record for COC(=O)N[C@H](C(=O)N1CCCC1c1ncc(C#CC#Cc2ccc(-c3cnc(C4CCCN4C(=O)[C@@H](NC(=O)OC)C(C)C)[nH]3)cc2)[nH]1)C(C)C.Cl (single isomer, unassigned; 13a) , report its bioavailability. 58

---

Protein target, amino acids: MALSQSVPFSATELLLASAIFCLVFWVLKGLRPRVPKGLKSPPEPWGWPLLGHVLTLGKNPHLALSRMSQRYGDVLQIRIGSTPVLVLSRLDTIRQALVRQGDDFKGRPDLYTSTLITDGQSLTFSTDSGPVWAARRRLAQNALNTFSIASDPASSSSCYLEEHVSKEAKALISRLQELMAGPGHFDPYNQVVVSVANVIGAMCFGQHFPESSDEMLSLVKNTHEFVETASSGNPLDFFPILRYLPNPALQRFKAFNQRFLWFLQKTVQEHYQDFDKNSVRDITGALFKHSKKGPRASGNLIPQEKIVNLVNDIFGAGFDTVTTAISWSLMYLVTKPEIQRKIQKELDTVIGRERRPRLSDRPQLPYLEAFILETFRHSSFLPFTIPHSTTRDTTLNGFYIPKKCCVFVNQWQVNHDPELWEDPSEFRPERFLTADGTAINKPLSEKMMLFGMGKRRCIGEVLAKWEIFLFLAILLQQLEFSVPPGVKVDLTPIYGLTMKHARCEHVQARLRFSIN
MEASUREMENT KIND: IC50

# lookup: IC50 of COC(=O)N[C@H](C(=O)N1CCCC1c1ncc(C#CC#Cc2ccc(-c3cnc(C4CCCN4C(=O)[C@@H](NC(=O)OC)C(C)C)[nH]3)cc2)[nH]1)C(C)C.Cl (single isomer, unassigned; 13a) > 10 µM
